test system: UACC-257 melanoma; assay: NCI tumour cell line growth inhibition, 48 h; in the data active = GI50 below about 0.43 µM; inactive = the rest
Just give me one of these, please: active, inactive

These recorded examples may help you get a feel for the data.
compound: OC(COc1cccc2ccccc12)CN1CCN(c2ccccc2)CC1 (stereo not drawn)
label-class: inactive

compound: CC(=O)OCC1OC(OC2=C(CC=C(Cl)Cl)C(=O)c3ccccc3C2=O)C(OC(C)=O)C(OC(C)=O)C1OC(C)=O (stereo not drawn)
label-class: inactive

compound: CC[C@@H](C(=O)[C@@H](C)[C@@H](O)[C@H](C)[C@@H]1O[C@@H]([C@@H](CC)C(=O)O)CC[C@@H]1C)[C@H]1OC2(C=C[C@@H](O)[C@]3(CC[C@@](C)([C@H]4CC[C@](O)(CC)[C@H](C)O4)O3)O2)[C@H](C)C[C@@H]1C (stereo partly drawn)
label-class: active

compound: N#Cc1cccc(NC(=O)c2oc3ccccc3c2-c2cnn(-c3ccccc3)c2)c1
label-class: inactive

compound: CC1OC(OC2CC(O)C3(CO)C4C(O)CC5(C)C(C6=CC(=O)OC6)CCC5(O)C4CCC3(O)C2)C(O)C(O)C1O (stereo not drawn)
label-class: active

compound: COc1cc([C@@H]2c3cc4c(cc3[C@@H](O[C@@H]3O[C@@H]5CO[C@@H](c6cccs6)O[C@H]5[C@H](O)[C@H]3O)[C@H]3COC(=O)[C@H]23)OCO4)cc(OC)c1O
label-class: inactive

compound: C=C1CCC2C3(C)COC(c4ccc(SC)cc4)OC3CCC2(C)C1C/C=C1/C(=O)OCC1O (stereo not drawn)
label-class: inactive

compound: c1ccc(-c2nn(-c3ccccc3)[n+](-c3cccc4ccccc34)n2)cc1
label-class: inactive

compound: COc1cccc(C2C3=C(COC3=O)N(CCO)c3cc4c(cc32)OCCO4)c1 (stereo not drawn)
label-class: active

compound: COc1c(CNC(=O)CCl)cc2[nH]c(C)cc2c1CNC(=O)CCl
label-class: inactive

[in] Fill in: this test's call for Clc1ccc(-c2nn3ncccc3c2-c2ccnc(Nc3ccccc3)n2)cc1 is ___
[out] inactive

[in] Fill in: this test's call for COc1cc2c3c(n(C)c(=O)c2cc1OC)-c1cc2c(cc1/C3=C\CCCBr)OCO2 is ___
[out] inactive

[in] Fill in: this test's call for CCOC(=O)c1c(C)n2c(=O)cc(C)c3c(OC(C)=O)c(OC(C)=O)cc1c32 is ___
[out] inactive

----------
tested on: SN12C renal; experiment: NCI tumour cell line growth inhibition, 48 h; in the data active = GI50 below about 0.43 µM; inactive = the rest
Just give me one of these, please: active, inactive

smiles-representation: CC[CH2][Sn]([Cl])([Cl])[CH2]CC
label-class: inactive

smiles-representation: COc1ccc(/C=C\c2cc(OC)c(OC)c(OC)c2)cc1OC(=O)c1cccc(Cn2cc(CCOC(=O)c3cccc(Cn4nnc5c4C(=O)c4ccccc4C5=O)c3)nn2)c1
label-class: active

[in] Fill in: this test's call for CC(=O)Nc1cc2c(cc1O)CC[C@@H]1[C@@H]2CC[C@]2(C)[C@@H](O)CC[C@@H]12 is ___
[out] inactive

[in] Fill in: this test's call for CCOC(=O)c1c(C)n2c(=O)cc(C)c3c(OC(C)=O)c(OC(C)=O)cc1c32 is ___
[out] inactive

[in] Fill in: this test's call for N#Cc1c(-c2ccccc2)cc(-c2ccccc2)n(CCCCC(=O)NO)c1=O is ___
[out] inactive
